Measured Target: PIK3CD (Human) (UniProt O00329)
Sequence (O00329 whole entry, looked up): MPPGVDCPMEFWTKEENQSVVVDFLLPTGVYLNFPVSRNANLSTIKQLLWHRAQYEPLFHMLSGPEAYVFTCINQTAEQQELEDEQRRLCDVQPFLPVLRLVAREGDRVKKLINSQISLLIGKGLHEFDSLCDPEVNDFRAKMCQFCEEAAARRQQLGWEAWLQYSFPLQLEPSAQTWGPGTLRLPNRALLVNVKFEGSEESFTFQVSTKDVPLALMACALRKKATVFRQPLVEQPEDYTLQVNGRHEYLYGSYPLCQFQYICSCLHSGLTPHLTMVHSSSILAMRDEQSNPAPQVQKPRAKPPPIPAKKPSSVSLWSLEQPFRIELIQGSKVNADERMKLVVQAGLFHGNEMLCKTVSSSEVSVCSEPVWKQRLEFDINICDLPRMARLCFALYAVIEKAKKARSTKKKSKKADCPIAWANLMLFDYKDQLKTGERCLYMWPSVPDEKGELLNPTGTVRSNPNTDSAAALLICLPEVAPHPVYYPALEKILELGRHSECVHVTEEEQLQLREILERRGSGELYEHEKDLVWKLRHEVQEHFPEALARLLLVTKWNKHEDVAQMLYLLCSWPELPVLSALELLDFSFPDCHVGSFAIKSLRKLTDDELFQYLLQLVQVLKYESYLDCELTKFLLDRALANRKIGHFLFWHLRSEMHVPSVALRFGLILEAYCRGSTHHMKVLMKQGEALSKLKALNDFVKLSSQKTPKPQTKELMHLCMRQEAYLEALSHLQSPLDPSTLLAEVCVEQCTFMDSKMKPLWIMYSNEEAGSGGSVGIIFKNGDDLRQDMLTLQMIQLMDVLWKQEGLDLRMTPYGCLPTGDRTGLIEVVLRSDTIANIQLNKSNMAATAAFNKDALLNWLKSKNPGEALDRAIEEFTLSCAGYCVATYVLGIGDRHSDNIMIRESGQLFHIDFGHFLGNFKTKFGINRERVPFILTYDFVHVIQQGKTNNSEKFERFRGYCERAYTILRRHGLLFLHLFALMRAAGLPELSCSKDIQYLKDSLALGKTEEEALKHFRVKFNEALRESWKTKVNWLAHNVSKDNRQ
Consider the following compounds; for each one, report its IC50.
The reply should be a number in µM, with the unit left off.

Reported IC50 ( `CN(C)c1ccc(-c2nc3c(O[C@H]4CCN(C(=O)OC(C)(C)C)C4)ncnc3n2C)cn1` ) = 0.065

Kindly note the recorded IC50 for `CCn1ncc(-c2nc3c(O[C@@H]4CC[C@H](NC(=O)C5CCOCC5)C4)ncnc3n2C)c1C` , which is 0.29

// recorded IC50 for CCn1ncc(-c2nc3c(O[C@H]4CCN(C(=O)C5CCOC(C)(C)C5)C4)ncnc3n2C)c1C (some centres undefined) : 0.0012

Lab note: `CCn1ncc(-c2nc3c(O[C@H]4CCN(C(=O)c5cnon5)C4)ncnc3n2C)c1C` gave IC50 of 0.041

GET /value?item= `CCCn1c(-c2cnn(CC)c2C)nc2c(O[C@H]3CCN(C(=O)CC)C3)ncnc21` &field=IC50 returns 0.058

get_value(item= `CCC(=O)N1CC[C@H](Oc2ncnc3c2nc(-c2ccc(OC)c(F)c2)n3C)C1` , readout=IC50) returns 0.0064

Note to self: IC50 recorded for `CCNC(=O)N1CC[C@H](Oc2ncnc3c2nc(-c2cnn(CC)c2C)n3C)C1` was 0.01

Item: `CCn1c(-c2cnc(C)nc2)nc2c(O[C@H]3CCN(c4cncnc4)C3)ncnc21` | IC50: 0.047

IC50 reading for `CCn1c(N2CCC(C)CC2)nc2c(O[C@H]3CCN(C(=O)OC(C)(C)C)C3)ncnc21` : 0.38
